Reference source for all entries: paper PMC3833957

assayed-system: ELIC (Dickeya chrysanthemi, UniProt P0C7B7)
Sequence (P0C7B7 whole entry): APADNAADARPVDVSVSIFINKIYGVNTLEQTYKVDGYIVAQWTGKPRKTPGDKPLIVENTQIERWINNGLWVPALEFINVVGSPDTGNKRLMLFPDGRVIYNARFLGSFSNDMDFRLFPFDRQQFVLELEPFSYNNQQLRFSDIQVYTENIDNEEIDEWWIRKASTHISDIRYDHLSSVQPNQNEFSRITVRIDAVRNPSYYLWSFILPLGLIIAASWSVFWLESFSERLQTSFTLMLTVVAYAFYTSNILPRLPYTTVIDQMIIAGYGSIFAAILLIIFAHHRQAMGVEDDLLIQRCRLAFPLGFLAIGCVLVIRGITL
test-protocol: two-electrode voltage clamp in Xenopus oocytes; outside-out patch clamp of HEK-293T cells
pEC50: −log10 of the molar value.
measurement-label: pEC50

INSERT INTO measurements (smiles_code, numeric_value) VALUES
  ('NCCS', 2.00);
